meta.source: patent US8017775B2

Quick reference for GR Binding ratio (%) among some molecules
Molecular target: Recombinant human GR (Homo sapiens, UniProt P04150)
Construct: purchased Invitrogen P2816
Sequence (P04150 1-777): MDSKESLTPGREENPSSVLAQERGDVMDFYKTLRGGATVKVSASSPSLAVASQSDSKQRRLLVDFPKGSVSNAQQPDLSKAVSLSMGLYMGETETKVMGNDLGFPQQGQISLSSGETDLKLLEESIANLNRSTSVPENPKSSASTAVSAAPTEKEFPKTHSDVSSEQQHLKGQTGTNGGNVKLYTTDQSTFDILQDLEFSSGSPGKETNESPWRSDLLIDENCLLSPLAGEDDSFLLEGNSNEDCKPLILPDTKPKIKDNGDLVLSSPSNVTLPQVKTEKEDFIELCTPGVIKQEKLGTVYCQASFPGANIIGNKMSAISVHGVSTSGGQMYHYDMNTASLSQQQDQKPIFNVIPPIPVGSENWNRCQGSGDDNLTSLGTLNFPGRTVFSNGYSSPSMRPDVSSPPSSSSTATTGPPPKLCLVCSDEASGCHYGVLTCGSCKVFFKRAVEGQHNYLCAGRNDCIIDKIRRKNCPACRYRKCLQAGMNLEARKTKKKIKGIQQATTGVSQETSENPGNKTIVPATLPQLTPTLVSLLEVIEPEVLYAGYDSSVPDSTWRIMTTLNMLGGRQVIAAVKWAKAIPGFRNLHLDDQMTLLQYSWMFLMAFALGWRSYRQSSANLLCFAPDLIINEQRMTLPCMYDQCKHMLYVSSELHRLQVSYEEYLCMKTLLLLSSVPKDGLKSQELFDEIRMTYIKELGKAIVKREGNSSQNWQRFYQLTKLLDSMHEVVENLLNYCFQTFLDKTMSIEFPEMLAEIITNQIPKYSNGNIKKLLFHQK
Assay: GR competitor assay by fluorescence polarization (GR binding ratio)
Settings: positive control 2 mM dexamethasone, a GR binding ratio of 100% or more is indicated by 100%
reported-endpoint: GR Binding ratio (%)

COc1ccc(F)cc1-c1ccc2c(c1COc1cc(C)ccc1C)C(C)=CC(C)(C)N2; ≥ 100%
COc1ccc(OCc2ccccc2)cc1-c1ccc2c(c1COc1cc(F)ccc1C)C(C)=CC(C)(C)N2; 76%
COc1cc(F)ccc1-c1ccc2c(c1CNc1cccc(C)c1)C(C)=CC(C)(C)N2; 98%
COc1cc(F)ccc1-c1ccc2c(c1CNc1ccccc1CCO)C(C)=CC(C)(C)N2; ≥ 100%
COc1cc(F)ccc1-c1ccc2c(c1CNc1ccccc1C)C(C)=CC(C)(C)N2; ≥ 100%
COc1cc(F)ccc1-c1ccc2c(c1COc1ccccc1CCO)C(C)=CC(C)(C)N2; ≥ 100%
COc1ccccc1NCc1c(-c2cc(F)ccc2OC)ccc2c1C(C)=CC(C)(C)N2; ≥ 100%
COc1ccc(Cl)cc1-c1ccc2c(c1COc1cc([N+](=O)[O-])ccc1C)C(C)=CC(C)(C)N2; ≥ 100%
